Where do the numbers come from? From PubChem BioAssay.

# Tested on: Sam68 (KHDRBS1)
# ASSAY_COMMENT: Sam68 small-molecule binders, primary screen, biochemical, small-molecule microarray, 635 nm fluorescence (AID 1125);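 note: score merges 667 nm channel intensity with signal to noise over triplicate slides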
# CONDITIONS_USED: small-molecule microarray binding, higher = more signal
Cut-off 1 on composite z-score, inclusive. At or above means criterion met; below means criterion not met.

Determine whether measured composite z-score meets or exceeds 1 for COC(=O)[C@@]1(Cc2ccccc2)[C@H]2c3cc(C(=O)N4CCCC4)n(C[C@H](O)CO)c3C[C@H]2CN1C(=O)c1ccccc1 criterion not met

Determine whether measured composite z-score meets or exceeds 1 for CN1C(=O)C2C=CC(C(O)C3CCCCC3)N(N3CCCCC3)C2C1=O (stereo unspecified) criterion met

Determine whether measured composite z-score meets or exceeds 1 for CCOC(=O)C1=C[C@@H](c2ccccc2)N(S(=O)(=O)c2ccc(C)cc2)[C@H]1c1cccc(Cl)c1 criterion met

More entries:
Determine whether measured composite z-score meets or exceeds 1 for O=C1c2ccccc2[C@@]2(Cc3ccccc3N(C3CC3)C2=O)[C@H](c2ccc(CO)cc2)N1C1CCCCC1 criterion not met

Determine whether measured composite z-score meets or exceeds 1 for C=CCOC(=O)[C@H]1[C@@H]2C(=O)O[C@@H](c3ccccc3)[C@@H](c3ccccc3)N2[C@@H](c2ccc(OCCOC(=O)[C@H]3C[C@H]4C(=O)N[C@@H](Cc5ccccc5)C(=O)N4[C@H]3c3ccc(O)cc3)cc2)[C@]12C(=O)Nc1ccc(I)cc12 criterion met

Determine whether measured composite z-score meets or exceeds 1 for NC(=O)NCC#Cc1ccc2c(c1)[C@]1(C(=O)N2)[C@H](c2ccc(O)cc2)N2[C@H](c3ccccc3)[C@H](c3ccccc3)OC(=O)[C@H]2[C@@H]1C(=O)Nc1nc2ccccc2s1 criterion not met
